# System: Mus musculus
# Method Summary: Neurotoxicity in albino Carworth Farms No.1 mouse assessed as motor impairment at 30 mg/kg, ip after 0.5 hrs by rotarod test
# Format: toxicity, organism-based
# Parameters: dose 30 mg/kg, route intraperitoneal
# Condition Parameters: in vivo
Assay Readout: Activity

Known results for molecules:
[
  {
    "Smiles Str": "CCOC(=O)CN1C(=O)[C@H](c2ccccc2)N2CCC[C@H]2C1=O",
    "Assay Readout": "Activity",
    "Value": "Non-toxic"
  },
  {
    "Smiles Str": "Cl.O=C1[C@H](c2ccccc2)N2CCC[C@H]2C(=O)N1Cc1ccccc1",
    "Assay Readout": "Activity",
    "Value": "Non-toxic"
  },
  {
    "Smiles Str": "CN1C(=O)[C@H](c2ccccc2)N2CCC[C@H]2C1=O.Cl",
    "Assay Readout": "Activity",
    "Value": "Non-toxic"
  },
  {
    "Smiles Str": "O=C1[C@@H]2CCCN2[C@H](c2ccccc2)C(=O)N1Cc1ccccc1",
    "Assay Readout": "Activity",
    "Value": "Non-toxic"
  },
  {
    "Smiles Str": "C[C@@H]1C(=O)NC(=O)[C@@H]2CCCN12",
    "Assay Readout": "Activity",
    "Value": "Non-toxic"
  },
  {
    "Smiles Str": "O=C1[C@@H]2CCCN2[C@H](c2ccccc2)C(=O)N1CCc1ccccc1",
    "Assay Readout": "Activity",
    "Value": "Non-toxic"
  },
  {
    "Smiles Str": "O=C1NC(=O)[C@@H](c2ccccc2)N2CCC[C@@H]12",
    "Assay Readout": "Activity",
    "Value": "Non-toxic"
  },
  {
    "Smiles Str": "O=C1CN2CCC[C@H]2C(=O)N1",
    "Assay Readout": "Activity",
    "Value": "Non-toxic"
  },
  {
    "Smiles Str": "O=C1NC(=O)[C@@H]2CCCN2[C@H]1c1ccccc1",
    "Assay Readout": "Activity",
    "Value": "Non-toxic"
  },
  {
    "Smiles Str": "Cl.O=C1[C@H](c2ccccc2)N2CCC[C@H]2C(=O)N1CCc1ccccc1",
    "Assay Readout": "Activity",
    "Value": "Non-toxic"
  }
]

Activity reported for this molecule `Cl.O=C1CN2CCC[C@H]2C(=O)N1CCc1ccccc1` : Non-toxic

Activity reported for this molecule `C[C@H]1C(=O)NC(=O)[C@@H]2CCCN12` : Non-toxic

---

# System: Mus musculus
# Method Summary: Neurotoxicity in albino Carworth Farms No.1 mouse assessed as motor impairment at 300 mg/kg, ip after 0.5 hrs by rotarod test
# Format: toxicity, organism-based
# Parameters: dose 300 mg/kg, route intraperitoneal
# Condition Parameters: in vivo

[
  {
    "Smiles Str": "Cl.O=C1[C@H](c2ccccc2)N2CCC[C@H]2C(=O)N1Cc1ccccc1",
    "Measurement Target": "Mus musculus",
    "Activity": "Non-toxic"
  },
  {
    "Smiles Str": "COC(=O)[C@@H](c1ccccc1)N1CCC[C@H]1C(N)=O",
    "Measurement Target": "Mus musculus",
    "Activity": "Toxic"
  },
  {
    "Smiles Str": "O=C1[C@@H]2CCCN2[C@H](c2ccccc2)C(=O)N1CCc1ccccc1",
    "Measurement Target": "Mus musculus",
    "Activity": "Non-toxic"
  },
  {
    "Smiles Str": "Cl.O=C1CN2CCC[C@H]2C(=O)N1CCc1ccccc1",
    "Measurement Target": "Mus musculus",
    "Activity": "Toxic"
  }
]

Measured values drawn from ChEMBL document CHEMBL1909525 for this set.
